Attribution: patent US20130230459A1

For each record, write down the corresponding melting point.
One number for each entry, in °C.

{"smiles representation": "COc1c(F)ccc(F)c1C1CCN(c2ccn3c(CC4CC4)nnc3c2Cl)CC1", "units text": "°C", "melting point": 163.2}
{"smiles representation": "COc1cc(F)cc(F)c1C1CCN(c2ccn3c(CC4CC4)nnc3c2Cl)CC1", "units text": "°C", "melting point": 162.2}
{"smiles representation": "COc1c(F)cccc1C1CCN(c2ccn3c(CC4CC4)nnc3c2C(F)(F)F)CC1", "units text": "°C", "melting point": 195.7}
{"smiles representation": "COc1ccc(F)c(F)c1C1CCN(c2ccn3c(CC4CC4)nnc3c2Cl)CC1", "units text": "°C", "melting point": 208.5}
{"smiles representation": "COc1ccc(F)cc1C1CCN(c2ccn3c(CC(F)(F)F)nnc3c2Cl)CC1", "units text": "°C", "melting point": 259}

Return reported melting point values for all items listed beneath this line.
1. COc1c(F)ccc(F)c1C1CCN(c2ccn3c(CC4CC4)nnc3c2C(F)(F)F)CC1
2. COc1c(F)cccc1C1CCN(c2ccn3c(CC4CC4)nnc3c2Cl)CC1

Key:
180.7
168.3

Exercise: Give its melting point value. Item: `COc1c(C2CCN(c3ccn4c(CC5CC5)nnc4c3Cl)CC2)ccc(F)c1F`
Key: 173.5

---

procedure text: Biodistribution studies of 11C tracers
Type: in vivo, Wistar rats
protocol conditions: 2 min p.i.
experimental readout: % ID Liver (% ID)
Numbers only, in % ID.

Worked cases, % ID Liver given:
{"molecule": "[11CH3]Oc1cccc(F)c1C1CCN(c2ccn3c(CC4CC4)nnc3c2Cl)CC1 [[^11C]B-6]", "experimental readout": "% ID Liver", "reported": 30.2}
{"molecule": "[11CH3]Oc1c(F)ccc(F)c1C1CCN(c2ccn3c(CC4CC4)nnc3c2Cl)CC1 [[^11C]B-2]", "experimental readout": "% ID Liver", "reported": 33.5}
{"molecule": "[11CH3]Oc1ccc(F)cc1C1CCN(c2ccn3c(CC4CC4)nnc3c2Cl)CC1 [[^11C]B-4]", "experimental readout": "% ID Liver", "reported": 29.9}
{"molecule": "[11CH3]Oc1ccc(F)c(F)c1C1CCN(c2ccn3c(CC4CC4)nnc3c2Cl)CC1 [[^11C]B-10]", "experimental readout": "% ID Liver", "reported": 32.3}
{"molecule": "[11CH3]Oc1cc(F)cc(F)c1C1CCN(c2ccn3c(CC4CC4)nnc3c2Cl)CC1 [[^11C]B-7]", "experimental readout": "% ID Liver", "reported": 33.4}

We now examine a further molecule.
Exercise: Give its % ID Liver value. Item: [11CH3]Oc1c(F)ccc(F)c1C1CCN(c2ccn3c(CC4CC4)nnc3c2C(F)(F)F)CC1 [[^11C]B-3]
Key: 28.7

---

For each record, write down the corresponding % reduction of SUV (total brain) due to chase.
test system: mGluR2 (Rattus norvegicus, UniProt P31421)
Construct: from tissue; host or cells: brain of living male Wistar rats (in vivo microPET)
Sequence (P31421 19-872): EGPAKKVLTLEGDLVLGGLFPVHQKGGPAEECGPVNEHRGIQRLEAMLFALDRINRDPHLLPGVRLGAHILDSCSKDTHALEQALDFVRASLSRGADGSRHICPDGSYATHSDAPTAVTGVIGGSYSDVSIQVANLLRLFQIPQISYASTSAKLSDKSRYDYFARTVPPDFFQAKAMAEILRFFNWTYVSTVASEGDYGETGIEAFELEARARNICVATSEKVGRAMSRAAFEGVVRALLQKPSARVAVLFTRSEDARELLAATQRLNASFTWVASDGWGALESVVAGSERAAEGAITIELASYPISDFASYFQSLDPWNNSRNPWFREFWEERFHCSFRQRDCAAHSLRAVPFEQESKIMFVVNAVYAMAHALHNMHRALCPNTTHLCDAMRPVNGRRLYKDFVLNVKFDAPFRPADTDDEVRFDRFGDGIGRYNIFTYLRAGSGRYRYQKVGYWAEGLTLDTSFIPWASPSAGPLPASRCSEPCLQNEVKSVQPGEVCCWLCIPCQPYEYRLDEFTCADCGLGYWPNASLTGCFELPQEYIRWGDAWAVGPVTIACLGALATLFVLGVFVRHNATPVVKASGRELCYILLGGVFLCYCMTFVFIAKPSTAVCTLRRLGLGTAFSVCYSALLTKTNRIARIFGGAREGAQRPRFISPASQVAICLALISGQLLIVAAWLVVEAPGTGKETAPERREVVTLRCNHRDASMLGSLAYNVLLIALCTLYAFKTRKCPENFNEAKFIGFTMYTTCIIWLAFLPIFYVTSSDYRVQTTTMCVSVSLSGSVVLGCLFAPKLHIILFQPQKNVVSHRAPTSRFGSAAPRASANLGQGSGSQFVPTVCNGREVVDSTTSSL
procedure text: MicroPET imaging: baseline, blocking and chase experiments
Type: in vivo, Wistar rats
protocol conditions: chase compound B 4 mg/kg i.v.
A complete answer gives the number followed by the unit.

Worked cases, % reduction of SUV (total brain) due to chase given:
{"compound": "[11CH3]Oc1ccc(F)c(F)c1C1CCN(c2ccn3c(CC4CC4)nnc3c2Cl)CC1 [[^11C]B-10]", "reported": "58%"}
{"compound": "[11CH3]Oc1ccc(F)cc1C1CCN(c2ccn3c(CC4CC4)nnc3c2Cl)CC1 [[^11C]B-4]", "reported": "70%"}
{"compound": "[11CH3]Oc1c(F)ccc(F)c1C1CCN(c2ccn3c(CC4CC4)nnc3c2Cl)CC1 [[^11C]B-2]", "reported": "73%"}

We now examine a further compound.
Exercise: Give its % reduction of SUV (total brain) due to chase value. Item: [11CH3]Oc1cc(F)cc(F)c1C1CCN(c2ccn3c(CC4CC4)nnc3c2Cl)CC1 [[^11C]B-7]
Key: 58%
